Where these numbers come from: patent US6534523B1

target: HCV NS3 protease (UniProt P26663); format: biochemical, HCV genotype 1b; set-up: rows headed: IC50 (μM); IC50 (μM); conditions: Table 6
Sequence (P26663 1027-1206, other chains not shown): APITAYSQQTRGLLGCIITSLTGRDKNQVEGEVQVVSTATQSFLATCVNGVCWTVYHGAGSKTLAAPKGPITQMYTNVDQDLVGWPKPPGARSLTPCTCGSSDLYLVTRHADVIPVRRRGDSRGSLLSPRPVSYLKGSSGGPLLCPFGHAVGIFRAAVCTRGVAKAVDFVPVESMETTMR
Parameter: IC50. Scope: all listed entries.
REPORTED_ENDPOINT: IC50 (µM)

{"COMPOUND": "C=CC1CC1(NC(=O)C1CC(Oc2ccnc3cc(N(C)C)ccc23)CN1C(=O)C(NC(=O)OC(C)(C)C)C(C)(C)C)C(=O)O (stereo not drawn) [compound 615]", "NUMERIC_RESULT": 0.16}
{"COMPOUND": "C=CC1CC1(NC(=O)C1CC(Oc2cc(-c3csc(NC(C)C)n3)nc3cc(N(C)C)ccc23)CN1C(=O)C(NC(=O)OC(C)(C)C)C(C)(C)C)C(=O)O (stereo not drawn) [compound 629]", "NUMERIC_RESULT": 0.02}
{"COMPOUND": "C=CC1CC1(NC(=O)C1CC(Oc2cc(-c3ccccc3)nc3cc(CC)ccc23)CN1C(=O)C(NC(=O)OC(C)(C)C)C(C)C)C(=O)O (stereo not drawn) [compound 603]", "NUMERIC_RESULT": 0.195}

###

biological target: HCV NS3 protease (UniProt P26663); assay type: biochemical, HCV genotype 1b; parameters: rows headed: IC50 (μM); IC50 (μM); details: Table 8
REPORTED_ENDPOINT: IC50

{"COMPOUND": "C=CC1CC1(NC(=O)C1CC(Oc2cc(-c3ccccc3)nc3cc(OC)ccc23)CN1C(=O)C(NC(=O)OC(C)(C)C)C1CCCCC1)C(=O)O (centres unmarked) [compound 847]", "RESULT": "37 nM"}
{"COMPOUND": "C=CC1CC1(NC(=O)C1CC(Oc2cc(-c3ccccc3)nc3cc(OC)ccc23)CN1C(=O)C(NC(=O)C(C)C1CCCCC1)C(C)(C)C)C(=O)O (centres unmarked) [compound 806]", "RESULT": "36 nM"}
{"COMPOUND": "C=CC1CC1(NC(=O)C1CC(Oc2cc(-c3ccccc3)nc3cc(OC)ccc23)CN1C(=O)C(NC(=O)NC(C)(C)CC)C(C)(C)C)C(=O)O (centres unmarked) [compound 870]", "RESULT": "9 nM"}
{"COMPOUND": "C=CC1CC1(NC(=O)C1CC(Oc2cc(-c3ccccc3)nc3cc(OC)ccc23)CN1C(=O)C(NC(=O)OC1CCOC1)C(C)(C)C)C(=O)O (centres unmarked) [compound 865]", "RESULT": "20 nM"}
{"COMPOUND": "C=CC1CC1(NC(=O)C1CC(Oc2cc(-c3ccccc3)nc3cc(OC)ccc23)CN1C(=O)C(Nc1cccc(Oc2ccc(F)cc2)c1)C(C)C)C(=O)O (centres unmarked) [compound 860]", "RESULT": "240 nM"}
{"COMPOUND": "C=CC1CC1(NC(=O)C1CC(Oc2cc(-c3ccccc3)nc3cc(OC)ccc23)CN1C(=O)C(Nc1ccc(NC(C)=O)cc1)C(C)C)C(=O)O (centres unmarked) [compound 845]", "RESULT": "180 nM"}
{"COMPOUND": "C=CC1CC1(NC(=O)C1CC(Oc2cc(-c3ccccc3)nc3cc(OC)ccc23)CN1C(=O)C(NC(=O)CC1CCCCC1)C(C)(C)C)C(=O)O (centres unmarked) [compound 804]", "RESULT": "32 nM"}
{"COMPOUND": "C=CC1CC1(NC(=O)C1CC(Oc2cc(-c3ccccc3)nc3cc(OC)ccc23)CN1C(=O)C(NC(=O)NC(C)C(N)=O)C(C)(C)C)C(=O)O (centres unmarked) [compound 831]", "RESULT": "15 nM"}
{"COMPOUND": "C=CC1CC1(NC(=O)C1CC(Oc2cc(-c3ccccc3Cl)nc3cc(OC)ccc23)CN1C(=O)C(NC(=O)OC(C)(C)C)C(C)(C)C)C(=O)O (centres unmarked) [compound 814]", "RESULT": "130 nM"}
{"COMPOUND": "C=CC1CC1(NC(=O)C1CC(Oc2cc(-c3cccc(C)c3)nc3cc(OC)ccc23)CN1C(=O)C(NC(=O)OC(C)(C)C)C(C)(C)C)C(=O)O (centres unmarked) [compound 842]", "RESULT": "73 nM"}
{"COMPOUND": "C=CC1CC1(NC(=O)C1CC(Oc2cc(-c3ccccc3)nc3cc(OC)ccc23)CN1C(=O)C(NC(=O)Nc1ccccc1)C(C)(C)C)C(=O)O (centres unmarked) [compound 812]", "RESULT": "13 nM"}

###

target: HCV NS3 protease (UniProt P26663); type: biochemical, HCV genotype 1b; design: rows headed: IC50 (μM); IC50 (μM); settings: Table 9
pIC50: −log10 of the molar value.

{"COMPOUND": "C=CC1CC1(NC(=O)C1CC(Oc2cc(-c3ccccc3)nc3cc(OC)ccc23)CN1C(=O)C(NC(=O)Nc1nccs1)C(C)(C)C)C(=O)O (stereo not drawn) [compound 913]", "pIC50": 7.52}
{"COMPOUND": "C=CC1CC1(NC(=O)C1CC(Oc2cc(-c3ccccc3)nc3cc(OC)ccc23)CN1C(=O)C(NC(=O)C(CC(=O)O)C1CCCCC1)C(C)(C)C)C(=O)O (stereo not drawn) [compound 903]", "pIC50": 8.30}
{"COMPOUND": "C=CC1CC1(NC(=O)C1CC(Oc2cc(-c3ccccc3)nc3cc(OC)ccc23)CN1C(=O)C(NS(=O)(=O)c1ccccc1)C(C)(C)C)C(=O)O (stereo not drawn) [compound 909]", "pIC50": 7.44}

###

target: bovine pancreatic α-chymotrypsin (Bos taurus)

{"COMPOUND_STRING": "C=C[C@@H]1C[C@]1(NC(=O)[C@@H]1C[C@@H](Oc2cc(-c3ccccc3)nc3cc(OC)ccc23)CN1C(=O)[C@@H](NC(=O)OC(C)(C)C)C(C)C)C(=O)O", "IC50": "> 75 µM"}

###

target: HCV NS3 protease (UniProt P26663); type: biochemical, HCV genotype 1b; set-up: rows headed: IC50 (μM); IC50 (μM); conditions: Table 6
pIC50: −log10 of the molar value.

{"COMPOUND": "C=CC1CC1(NC(=O)C1CC(Oc2cc(OCC)nc3ccccc23)CN1C(=O)C(NC(=O)OC(C)(C)C)C(C)(C)C)C(=O)O (stereo not drawn) [compound 622]", "pIC50": 6.80}
{"COMPOUND": "C=CC1CC1(NC(=O)C1CC(Oc2cc(-c3ccccc3)nc3cc(Br)ccc23)CN1C(=O)C(NC(=O)OC(C)(C)C)C(C)(C)C)C(=O)O (stereo not drawn) [compound 626]", "pIC50": 6.62}
{"COMPOUND": "C=CC1CC1(NC(=O)C1CC(Oc2cc(CN3CCCC3)nc3ccccc23)CN1C(=O)C(NC(=O)OC(C)(C)C)C(C)(C)C)C(=O)O (stereo not drawn) [compound 614]", "pIC50": 5.66}
{"COMPOUND": "C=CC1CC1(NC(=O)C1CC(Oc2cc(N3CCCCC3)nc3ccccc23)CN1C(=O)C(NC(=O)OC(C)(C)C)C(C)(C)C)C(=O)O (stereo not drawn) [compound 617]", "pIC50": 6.46}
{"COMPOUND": "C=CC1CC1(NC(=O)C1CC(Oc2cc(-c3ccccc3)nc3cc(F)ccc23)CN1C(=O)C(NC(=O)OC(C)(C)C)C(C)(C)C)C(=O)O (stereo not drawn) [compound 627]", "pIC50": 6.48}
{"COMPOUND": "C=CC1CC1(NC(=O)C1CC(Oc2cc(OC)nc3ccccc23)CN1C(=O)C(NC(=O)OC(C)(C)C)C(C)(C)C)C(=O)O (stereo not drawn) [compound 623]", "pIC50": 6.70}

###

target: HCV NS3 protease (UniProt P26663); type: biochemical, HCV genotype 1b; set-up: rows headed: IC50 (μM); IC50 (μM); settings: Table 4
pIC50: −log10 of the molar value.
REPORTED_ENDPOINT: pIC50

{"COMPOUND": "COc1ccc2c(OC3C[C@@H](C(=O)NC4(C(=O)O)CCC4)N(C(=O)[C@@H](NC(=O)OC(C)(C)C)C(C)(C)C)C3)cc(-c3ccccc3)nc2c1 (stereo partly shown)", "NUMERIC_RESULT": 6.88}

###

Parameter: pIC50. Scope: all listed entries.
molecular target: HCV NS3 protease (UniProt P26663); type: biochemical, HCV genotype 1b; parameters: rows headed: IC50 (μM); IC50 (μM); conditions: Table 5
pIC50: −log10 of the molar value.

{"COMPOUND": "C=CC1CC1(NC(=O)C1CC(Oc2ccnc3ccccc23)CN1C(=O)C(NC(=O)OC(C)(C)C)C(C)OC)C(=O)O (stereo not drawn)", "pIC50": 6.10}
{"COMPOUND": "C=CC1CC1(NC(=O)C1CC(Oc2ccnc3ccccc23)CN1C(=O)C(NC(=O)OC(C)(C)C)C(C)OC(C)(C)C)C(=O)O (stereo not drawn)", "pIC50": 6.10}
{"COMPOUND": "C=CC1CC1(NC(=O)C1CC(Oc2ccnc3ccccc23)CN1C(=O)C(NC(=O)OC(C)(C)C)C(C)CC)C(=O)O (stereo not drawn) [compound 509]", "pIC50": 6.42}
